system: Serratia marcescens expressing IMP-1 (CL5741); type: cell-based; settings: IMP-1 strain CL5741, with imipenem 1 μg/ml, 95% inhibition of growth
measure: Serratia marcescens MITC95 (µM)
Expressed in µM, but write only the number.

Observe how each entry below is paired with its result.
{"columns": ["smiles input", "system tested", "reading unit", "Serratia marcescens MITC95"],
 "data": [
  ["NCCNS(=O)(=O)c1ccc(-c2cccc3[nH]c([C@@H](N)CN)nc23)c(-c2nn[nH]n2)c1S(N)(=O)=O", "Serratia marcescens expressing IMP-1 (CL5741)", "µM", 3.125],
  ["Nc1ccc(-c2ccc(S(=O)(=O)NC[C@@H](N)CO)c(S(N)(=O)=O)c2-c2nn[nH]n2)cn1", "Serratia marcescens expressing IMP-1 (CL5741)", "µM", 0.3906]
]}

Enquiry: Hello, I am looking for reported Serratia marcescens MITC95 with Serratia marcescens expressing IMP-1 (CL5741) for Nc1nc2c(-c3ccc(S(=O)(=O)N[C@@H]4C[C@H]4N)c(S(N)(=O)=O)c3-c3nnn[nH]3)cccc2[nH]1 . Could you help?
Return: 1.563

Enquiry: Query NCCNS(=O)(=O)c1ccc(-c2cccc3ccc(N)nc23)c(-c2nn[nH]n2)c1S(N)(=O)=O next
Return: 0.7813

###

Catalogue of compounds with associated IC50
molecular target: VIM-1 (Pseudomonas aeruginosa (strain ATCC 15692 / DSM 22644 / CIP 104116 / JCM 14847 / LMG 12228 / 1C / PRS 101 / PAO1)); assay: biochemical; conditions: VIM-1 IC50, fluorescence assay, CCF2-FA substrate, 30 pM enzyme, 2 hours at 25° C.
Answer format: numeric, nM implied, no suffix.

{"columns": ["compound", "IC50 (nM)"],
 "data": [
  ["Nc1nc2c(-c3ccc(S(=O)(=O)N[C@@H]4CN[C@@H](CO)C4)c(S(N)(=O)=O)c3-c3nnn[nH]3)cccc2[nH]1", 0.39],
  ["NC[C@@H](N)CNS(=O)(=O)c1ccc(-c2cnc3cc[nH]c3c2)c(-c2nn[nH]n2)c1S(N)(=O)=O", 0.0985],
  ["NCc1ncc(-c2cccc(-c3ccc(S(=O)(=O)N[C@@H]4CCNC4)c(S(N)(=O)=O)c3-c3nn[nH]n3)c2)[nH]1", 0.144],
  ["C[C@H](N)Cc1nc2c(-c3ccc(S(N)(=O)=O)c(S(N)(=O)=O)c3-c3nn[nH]n3)cccc2[nH]1", 0.249],
  ["Nc1nc2c(-c3ccc(S(=O)(=O)N[C@@H]4CNC[C@@H]4N)c(S(N)(=O)=O)c3-c3nn[nH]n3)cccc2[nH]1", 0.169],
  ["NS(=O)(=O)c1c(S(=O)(=O)N[C@@H]2CCNC2)ccc(-c2cccc3cn[nH]c23)c1-c1nnn[nH]1", 0.141]
]}

Continue with the next compound.
Enquiry: Consider the compound shown here: Nc1nc2c(-c3ccc(S(=O)(=O)NCC4COCCN4)c(S(N)(=O)=O)c3-c3nn[nH]n3)cccc2[nH]1 (stereo not shown) What is its recorded IC50?
Return: 0.211

###

The following compounds are shown together with reported IC50 values.
target: VIM-1 (Pseudomonas aeruginosa (strain ATCC 15692 / DSM 22644 / CIP 104116 / JCM 14847 / LMG 12228 / 1C / PRS 101 / PAO1), UniProt A0A0F7KYQ8); assay: biochemical; conditions: fluorescence assay, CCF2-FA substrate, 30 pM enzyme, 2 hours at 25° C.; read-out: VIM-1 IC50
The response must be a number in nM with no trailing unit.

Enquiry: Endpoint output: IC50 of C[C@H](N)Cc1nc2c(-c3ccc(S(=O)(=O)N[C@@H]4CCNC4)c(S(N)(=O)=O)c3-c3nn[nH]n3)cccc2[nH]1 [Example 441] . Value?
Return: 0.15

Enquiry: Cool, now Nc1ccc(-c2ccc(S(=O)(=O)N[C@@H]3CCNC3)c(S(N)(=O)=O)c2-c2nn[nH]n2)cn1 [Example 194]
Return: 0.123

Enquiry: What about CN(C1CNC1)S(=O)(=O)c1ccc(-c2cccc3[nH]c(N)nc23)c(-c2nn[nH]n2)c1S(N)(=O)=O [Example 255] ?
Return: 0.936

Enquiry: Similarly, Nc1nc2c(-c3ccc(S(N)(=O)=O)c(S(N)(=O)=O)c3-c3nn[nH]n3)cccc2o1 [Example 4] ?
Return: 0.237

Enquiry: Try this compound too: Nc1nc2c(-c3ccc(S(=O)(=O)N[C@@H]4CCNC4)c(S(N)(=O)=O)c3-c3nn[nH]n3)cc(I)cc2[nH]1 [Example 234]
Return: 0.0829

Enquiry: Similarly, NCC(CN)NS(=O)(=O)c1ccc(-c2cccnc2N)c(-c2nn[nH]n2)c1S(N)(=O)=O [Example 210] ?
Return: 0.197

Enquiry: NS(=O)(=O)c1c(S(=O)(=O)N[C@@H]2CCNC2)ccc(-c2cccc3c2OC(F)(F)O3)c1-c1nnn[nH]1 [Example 131] , same question.
Return: 0.12

Enquiry: For NCCNS(=O)(=O)c1ccc(-c2cccc3sc(N)nc23)c(-c2nn[nH]n2)c1S(N)(=O)=O [Example 145] then?
Return: 0.182

Enquiry: What do you get for NCC(CN)NS(=O)(=O)c1ccc(-c2cccc(C3N=NC(N)=N3)c2)c(-c2nn[nH]n2)c1S(N)(=O)=O (centres unmarked) [Example 229] ?
Return: 0.12

Enquiry: Same again, this time with Nc1nc2c(-c3ccc(S(=O)(=O)N4CC5(CCNC5)C4)c(S(N)(=O)=O)c3-c3nnn[nH]3)cccc2s1 [Example 48]
Return: 0.49

Enquiry: Repeat for the following compound: NCc1nc2cc(-c3ccc(S(=O)(=O)NC[C@@H](O)CN)c(S(N)(=O)=O)c3-c3nn[nH]n3)ccc2s1 [Example 473]
Return: 0.109
